// provenance: the supplement of paper PMC7877785

Assay: self-splicing fitness, log relative to wild type (ln ratio); higher = more splicing; Tetrahymena group I intron in knt gene, E. coli kanamycin selection, DiMSum; sequences stand for … in CUCUCU…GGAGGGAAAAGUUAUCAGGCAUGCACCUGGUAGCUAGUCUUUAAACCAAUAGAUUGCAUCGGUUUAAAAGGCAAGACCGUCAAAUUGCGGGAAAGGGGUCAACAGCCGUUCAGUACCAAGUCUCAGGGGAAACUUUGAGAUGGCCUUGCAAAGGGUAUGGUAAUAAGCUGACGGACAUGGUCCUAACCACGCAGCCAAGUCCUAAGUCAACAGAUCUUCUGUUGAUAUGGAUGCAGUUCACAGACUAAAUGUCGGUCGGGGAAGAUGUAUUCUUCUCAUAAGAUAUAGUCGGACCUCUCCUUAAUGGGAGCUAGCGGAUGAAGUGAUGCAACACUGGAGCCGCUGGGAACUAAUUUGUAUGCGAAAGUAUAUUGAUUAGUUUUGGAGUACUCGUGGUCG;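 note: selection with 25 µg/mL kanamycin versus none on LB agar overnight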
Settings: 37 °C
Reported self-splicing fitness (ln) values for a set of sequences
Write no unit; give the number alone.

* CGGAAGCAAUAUUACGUCCA | 0.585
* UAAAAGCAAUAUUACGGGAG | -1.25
* AGCUAGCAAUAUUACGUUGU | -2.32
* UCCUAGCAAUAUUACGCCAA | -2.5
* AUCUAGCAAUAUUACGGGUG | -0.57
* CAUUAGCAAUAUUACGGAUU | -1.23

Given CUGGAGCAAUAUUACGAGAG , respond with its self-splicing fitness (ln).
-3.53

Given UGCCAGCAAUAUUACGAGCC , respond with its self-splicing fitness (ln).
0.369

Given GACCAGCAAUAUUACGCCUC , respond with its self-splicing fitness (ln).
-0.623

Given UAUUAGCAAUAUUACGCUAA , respond with its self-splicing fitness (ln).
-1.1

Given GUCUAGCAAUAUUACGAAUG , respond with its self-splicing fitness (ln).
-1.43

Given UUCCAGCAAUAUUACGUGAG , respond with its self-splicing fitness (ln).
0.597

Given ACCAAGCAAUAUUACGGUCC , respond with its self-splicing fitness (ln).
-1.07

Given ACCAAGCAAUAUUACGAGGC , respond with its self-splicing fitness (ln).
-2.32

Given GGAUAGCAAUAUUACGGCUA , respond with its self-splicing fitness (ln).
-0.532

Given ACCGAGCAAUAUUACGCGUC , respond with its self-splicing fitness (ln).
-2.18

Given CGAGAGCAAUAUUACGUCCA , respond with its self-splicing fitness (ln).
-3.02

Given CGGUAGCAAUAUUACGUUGG , respond with its self-splicing fitness (ln).
-0.39

Given CAUGAGCAAUAUUACGAGGG , respond with its self-splicing fitness (ln).
-1.03
